Values from patent US20020022647A1

Target: GST-MEK (p45MEK) and GST-MAPK (p44MAP kinase) (Homo sapiens, UniProt Q02750)
Sequence (Q02750 whole entry): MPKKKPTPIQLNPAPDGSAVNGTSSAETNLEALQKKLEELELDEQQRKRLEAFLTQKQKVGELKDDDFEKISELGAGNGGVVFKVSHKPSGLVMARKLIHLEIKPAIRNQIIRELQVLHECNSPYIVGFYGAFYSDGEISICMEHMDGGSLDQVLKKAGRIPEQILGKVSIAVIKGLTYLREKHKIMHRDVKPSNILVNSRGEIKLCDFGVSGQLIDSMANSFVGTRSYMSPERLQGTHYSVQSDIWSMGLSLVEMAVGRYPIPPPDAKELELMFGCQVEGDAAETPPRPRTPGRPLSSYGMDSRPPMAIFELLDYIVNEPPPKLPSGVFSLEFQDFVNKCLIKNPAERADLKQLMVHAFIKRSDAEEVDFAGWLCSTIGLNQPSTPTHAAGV
Assay: Cascade assay for inhibitors of the MAP kinase pathway (In Vitro)
Assay type: biochemical
Details: incorporation of 32P into myelin basic protein
Each record is given label 1 if its reported IC50 is strictly below 600 nM. Records at or above 600 nM are given label 0.

Ask: Given Cc1cc(I)ccc1Nc1ccc(F)cc1C(=O)NOCc1ccccc1 , is recorded IC50 strictly lower than 600 nM?
Result: label 1

Ask: Another compound to look at: O=C(O)c1cc(Cl)ccc1Nc1ccc(I)cc1Cl
Result: label 1

Ask: Another compound to look at: Cc1cc(I)ccc1Nc1c(F)cc(C(=O)O)c(F)c1F
Result: label 0

Ask: Another compound to look at: Cc1cc(Br)ccc1Nc1c(C(=O)O)ccc(F)c1F
Result: label 1

* * *

Molecular target: GST-MEK (p45MEK) and GST-MAPK (p44MAP kinase) (Homo sapiens)
Test: Cascade assay for inhibitors of the MAP kinase pathway (In Vitro)
Format: biochemical
Settings: incorporation of 32P into myelin basic protein
Reported IC50 values follow for various compounds
# number only, unit nM dropped from output

> print(dat)
                                   compound  property.name  reported.measurement
1  CCN(CC)CCNC(=O)c1cc(Cl)ccc1Nc1ccc(I)cc1C [Example 93]           IC50                   521

Ask: What IC50 value was documented for this compound, O=C(O)c1cc([N+](=O)[O-])ccc1Nc1ccc(I)cc1F [Example 12] ?
Result: 135

Ask: Another compound to look at: Cc1c(Nc2cc(F)ccc2C(=O)O)ccc(I)c1Cl [Example 23]
Result: 1588

Ask: Another compound to look at: CCCNC(=O)c1ccc(F)cc1Nc1ccc(I)cc1C [Example 41]
Result: 872

Ask: Another compound to look at: Cc1cc(I)ccc1Nc1c(C(=O)O)cc(Br)c(F)c1F [Example 4]
Result: 5

Ask: Another compound to look at: Cc1cc(I)ccc1Nc1c(F)cccc1C(=O)O [Example 16]
Result: 323

Ask: Another compound to look at: Cc1cc(I)ccc1Nc1c(C(=O)O)ccc(F)c1F [Example 3]
Result: 11.1

Ask: Another compound to look at: Cc1cc(I)ccc1Nc1ccc(Br)cc1C(=O)NCCO [Example 42]
Result: 920

Ask: Another compound to look at: Cc1cc(I)ccc1Nc1ccc([N+](=O)[O-])cc1C(=O)NCCO [Example 195]
Result: 12800

Ask: Another compound to look at: Cc1cc(I)ccc1Nc1ccc(Br)cc1C(=O)NCCO [Example 188]
Result: 771

Ask: Another compound to look at: Cc1cc(I)ccc1Nc1ccc([N+](=O)[O-])cc1C(=O)O [Example 11]
Result: 128

Ask: Another compound to look at: Cc1cc(I)ccc1Nc1ccc(F)cc1C(=O)N(C)c1ccccc1 [Example 194]
Result: 4952

Ask: Another compound to look at: Cc1cc(I)ccc1Nc1ccc(Cl)cc1C(=O)NCCO [Example 31]
Result: 226

Ask: Another compound to look at: Cc1cc(I)ccc1Nc1ccccc1-c1nnn[nH]1 [Example 208]
Result: 1215

Ask: Another compound to look at: Cc1cc(I)ccc1Nc1ccc(Br)cc1C(=O)N1CCC(O)C1 (stereo not drawn) [Example 100]
Result: 1994

Ask: Another compound to look at: Cc1cc(I)ccc1Nc1c(C(=O)NCCO)cc(Br)c(F)c1F [Example 53]
Result: 47

Ask: Another compound to look at: Cc1cc(I)ccc1Nc1c(C(=O)NCCN2CCCCC2)cc(Br)c(F)c1F [Example 55]
Result: 114

* * *

property_name: melting point

Sample records with melting point:
> print(dat)
                         compound.structure  reported.measurement
1          Cc1cc(I)ccc1Nc1ccccc1-c1nnn[nH]1         231 °C (dec.)
2        Cc1cc(I)ccc1Nc1ccc(Cl)cc1C(=O)NCCO         120 to 121 °C
3  Cc1cc(I)ccc1Nc1ccc([N+](=O)[O-])cc1-c1nnn[nH]1         205 to 208 °C

Switching to the query record.
Ask: What melting point value was documented for this compound, Cc1cc(I)ccc1Nc1cc(F)ccc1CO ?
Result: 99 to 100.5 °C

* * *

Molecular target: GST-MEK (p45MEK) and GST-MAPK (p44MAP kinase) (Homo sapiens, UniProt Q02750)
Assay: Cascade assay for inhibitors of the MAP kinase pathway (In Vitro)
Assay type: biochemical
Conditions: incorporation of 32P into myelin basic protein
Each record is given Fulfilled if its reported IC50 is strictly below 600 nM. Records at or above 600 nM are given Not fulfilled.

Worked cases, answers included:
> print(dat)
                                   compound  answer.label
1  Cc1cc(I)ccc1Nc1ccc(Cl)cc1C(=O)[O-].[Na+] [Example 7]     Fulfilled
2  Cc1cc(I)ccc1Nc1ccccc1C(=O)O [Example 19]     Fulfilled

Ask: Given O=C(O)c1cc([N+](=O)[O-])ccc1Nc1ccc(I)cc1Cl [Example 9] , is recorded IC50 strictly lower than 600 nM?
Result: Fulfilled

Ask: Another compound to look at: Cc1cc(I)ccc1Nc1ccc(Cl)cc1C(=O)N(C)c1ccccc1 [Example 190]
Result: Not fulfilled

Ask: Another compound to look at: Cc1cc(I)ccc1Nc1c(C(=O)O)cc(F)c(F)c1F [Example 2]
Result: Fulfilled

* * *

Target: GST-MEK (p45MEK) and GST-MAPK (p44MAP kinase) (Homo sapiens)
Assay: Cascade assay for inhibitors of the MAP kinase pathway (In Vitro)
Assay type: biochemical
Conditions: incorporation of 32P into myelin basic protein
Each record is given met if its reported IC50 is strictly below 0.9 µM. Records at or above 0.9 µM are given not met.

Worked cases, answers included:
> print(dat)
                                   compound                             tested.target  answer.label
1  Cc1cc(I)ccc1Nc1ccc([N+](=O)[O-])cc1C(=O)NCc1ccncc1  GST-MEK (p45MEK) and GST-MAPK (p44MAP kinase) (Homo sapiens)       not met
2           Cc1cc(I)ccc1Nc1ccc(Cl)cc1C(=O)O  GST-MEK (p45MEK) and GST-MAPK (p44MAP kinase) (Homo sapiens)           met
3  Cc1cc(I)ccc1Nc1ccc([N+](=O)[O-])cc1C(=O)N(C)c1ccccc1  GST-MEK (p45MEK) and GST-MAPK (p44MAP kinase) (Homo sapiens)           met
4          CCNC(=O)c1ccc(F)cc1Nc1ccc(I)cc1C  GST-MEK (p45MEK) and GST-MAPK (p44MAP kinase) (Homo sapiens)           met

Okay, next one:
Ask: Given Cc1cc(I)ccc1Nc1cc(F)ccc1C(=O)NCCCN1CCN(CCO)CC1 , is recorded IC50 strictly lower than 0.9 µM?
Result: not met

* * *

Molecular target: GST-MEK (p45MEK) and GST-MAPK (p44MAP kinase) (Homo sapiens)
Assay: Cascade assay for inhibitors of the MAP kinase pathway (In Vitro)
Assay type: biochemical
Conditions: incorporation of 32P into myelin basic protein
// map IC50 onto a label; ranges low bracket: < 300 nM; middle bracket: ≥ 300 nM and < 2000 nM; high bracket: ≥ 2000 nM

Worked cases, answers included:
> print(dat)
                                compound                             tested.target    answer.label
1  CCN(CC)C(=O)c1cc(Cl)ccc1Nc1ccc(I)cc1C  GST-MEK (p45MEK) and GST-MAPK (p44MAP kinase) (Homo sapiens)  middle bracket
2        Cc1cc(I)ccc1Nc1cc(Cl)ccc1C(=O)O  GST-MEK (p45MEK) and GST-MAPK (p44MAP kinase) (Homo sapiens)  middle bracket
3       Cc1ccc(Nc2ccc(I)cc2C)c(C(=O)O)c1  GST-MEK (p45MEK) and GST-MAPK (p44MAP kinase) (Homo sapiens)    high bracket

Ask: Please classify: CCN(CC)C(=O)c1cc([N+](=O)[O-])ccc1Nc1ccc(I)cc1C
Result: middle bracket

Ask: Another compound to look at: Cc1cc(I)ccc1Nc1cc(F)ccc1C(=O)Nc1nnn[nH]1
Result: low bracket

Ask: Another compound to look at: CNC(=O)c1ccc(F)cc1Nc1ccc(I)cc1C
Result: low bracket

Ask: Another compound to look at: Cc1cc(I)ccc1Nc1ccc(F)cc1C(=O)O
Result: middle bracket

Ask: Another compound to look at: Cc1cc(I)ccc1Nc1c(C(=O)NCC(O)CO)ccc(F)c1F (stereo not drawn)
Result: low bracket
